These entries and their values trace back to ChEMBL document CHEMBL5154900.

- assayText: Bioavailability in 12 hr fasted BALB/c mouse at 80 mg/kg, po measured for 0.083 to 24 hrs by UPLC-MS/MS analysis
- Assay type: ADME, organism-based
- conditionSet: in vivo, time 0.083-24 hrs
measureName: bioavailability (%)
Use % as the unit, but write only the number.

Give the measured bioavailability for CCN(c1cc(-c2ccc(OCCCCCNC(=O)C[C@@H]3N=C(c4ccc(Cl)cc4)c4c(sc(C)c4C)-n4c(C)nnc43)cc2)cc(C(=O)NCc2c(C)cc(C)[nH]c2=O)c1C)C1CCOCC1
4.94

###

- assayText: Cmax in 12 hr fasted BALB/c mouse at 80 mg/kg, ip measured for 0.083 to 24 hrs by UPLC-MS/MS analysis
- Assay type: ADME, organism-based
- Set-up: dose 80 mg/kg, time upper 24 hrs, time lower 0.083 hrs, route ip
- conditionSet: in vivo
measureName: Cmax (ng/mL)
The figure you give is taken to be in ng/mL; do not add the unit.

Read the entry CCN(c1cc(-c2ccc(OCCCCCNC(=O)C[C@@H]3N=C(c4ccc(Cl)cc4)c4c(sc(C)c4C)-n4c(C)nnc43)cc2)cc(C(=O)NCc2c(C)cc(C)[nH]c2=O)c1C)C1CCOCC1 and write its reported Cmax.
27100

###

- testedSystem: Bromodomain-containing protein 4 (Homo sapiens)
- assayText: Displacement of fluorescein-labeled JQ1 from His6/TEV cleavage site fused human BRD4 (residues N44 to E168) expressed in Escherichia coli BL21 (DE3) incubated for 60 min by Fluorescence polarization assay
measureName: IC50

Quote IC50 reported for CCN(c1cc(-c2ccc(OCCCCNC(=O)C[C@@H]3N=C(c4ccc(Cl)cc4)c4c(sc(C)c4C)-n4c(C)nnc43)cc2)cc(C(=O)NCc2c(C)cc(C)[nH]c2=O)c1C)C1CCOCC1 please.
82 nM

Please supply the value of reported IC50 for the item CCN(c1cc(-c2ccc(NC(=O)C[C@@H]3N=C(c4ccc(Cl)cc4)c4c(sc(C)c4C)-n4c(C)nnc43)cc2)cc(C(=O)NCc2c(C)cc(C)[nH]c2=O)c1C)C1CCOCC1
2840 nM

Fill in reported IC50 for this entry: CCN(c1cc(-c2ccc(OCCCNC(=O)C[C@@H]3N=C(c4ccc(Cl)cc4)c4c(sc(C)c4C)-n4c(C)nnc43)cc2)cc(C(=O)NCc2c(C)cc(C)[nH]c2=O)c1C)C1CCOCC1
1720 nM

Look up and state reported IC50 for CCN(c1cc(-c2ccc(OCCCCCNC(=O)C[C@@H]3N=C(c4ccc(Cl)cc4)c4c(sc(C)c4C)-n4c(C)nnc43)cc2)cc(C(=O)NCc2c(C)cc(C)[nH]c2=O)c1C)C1CCOCC1
34 nM

Quote IC50 reported for CCN(c1cc(-c2ccc(C(=O)NCCOCCNC(=O)C[C@@H]3N=C(c4ccc(Cl)cc4)c4c(sc(C)c4C)-n4c(C)nnc43)cc2)cc(C(=O)NCc2c(C)cc(C)[nH]c2=O)c1C)C1CCOCC1 please.
248 nM

###

- assayText: Cmax in 12 hr fasted BALB/c mouse at 80 mg/kg, po measured for 0.083 to 24 hrs by UPLC-MS/MS analysis
- Type: ADME, organism-based
- Parameters: dose 80 mg/kg, time 0.083-24 hrs, route po
- conditionSet: in vivo
measureName: Cmax (ng/mL)
Your answer is read as ng/mL, so omit the unit and give the number.

Consider the compound CCN(c1cc(-c2ccc(OCCCCCNC(=O)C[C@@H]3N=C(c4ccc(Cl)cc4)c4c(sc(C)c4C)-n4c(C)nnc43)cc2)cc(C(=O)NCc2c(C)cc(C)[nH]c2=O)c1C)C1CCOCC1 and give its recorded Cmax.
4380
